Test system: MDA-MB-435
PROTOCOL_DESCRIPTION: NCI tumour cell line growth inhibition, 48 h
MEASURED_PARAMETER: TGI

# count of solved cases: 3
Query: State, in one line, measured TGI of `O=C(Nc1nc(C23CC4CC(CC(C4)C2)C3)cs1)c1c(O)c2ccccc2[nH]c1=O`
Result: > 100 µM

Query: State, in one line, measured TGI of `N#Cc1c(NC(=S)Nc2ccc(Cl)cc2)sc2c1CCCC2`
Result: > 100 µM

Query: State, in one line, measured TGI of `O=C(c1ccco1)N(Cc1ccco1)C(=S)Nc1ccccc1`
Result: 30.2 µM

# batch: return TGI for each of the 7 molecules below
1. Cc1nc(-c2ccccc2)c(Cc2ccccc2O)c(=O)[nH]1
2. Cn1c(N)c(C(N)=O)[nH]c1=S
3. Cc1c(C#N)c2ccccc2c2nc3ccccc3n12
4. C/C=C1/CN2CCc3c([nH]c4ccccc34)[C@@H]2C[C@@H]1Cc1[nH]ccc2c1[nH]c1cc(=O)ccc12
5. COc1cc(/C=N/n2c(Cc3ccc(Cl)cc3)n[nH]c2=O)cc(OC)c1OC
6. Cc1ccc2c(c1)c1nc3cc(C)c(C)cc3nc1n2CCN(C)C
7. CC/C(=C(/c1ccc(OCCN(C)C)cc1)c1ccc(OC(=O)CCC(=O)c2c(C)[nH]c(/C=C3\N=C(c4ccc[nH]4)C=C3OC)c2C)cc1)c1ccccc1

Result:
1: > 100 µM; 2: > 100 µM; 3: > 100 µM; 4: 3.45 µM; 5: > 100 µM; 6: 4.42 µM; 7: 10.2 µM

---

Tested on: NCI-H226 lung
PROTOCOL_DESCRIPTION: NCI tumour cell line growth inhibition, 48 h
Assignment: determine reported TGI for the given molecules.

Query: State, in one line, measured TGI of `Cn1c(-c2cccs2)cc(-c2ccccc2)c1-c1cccs1`
Result: > 100 µM

# batch: return TGI for each of the 5 molecules below
1. C=[N+](CNC(=O)CNC(=O)C(Cc1ccc([N+](=O)[O-])cc1)NC(=O)OC(C)(C)C)C(=O)CNC(=O)C(Cc1ccc([N+](=O)[O-])cc1)NC(=O)OC(C)(C)C (stereo unspecified)
2. COc1cc(-c2nc3sccn3c2-c2ccnc(NCCNS(=O)(=O)c3ccc(Cl)cc3)n2)ccc1F
3. Nc1ccc2nc(NCc3ccc(F)cc3)cnc2c1
4. O=S1(=O)C(c2ccccc2)C(N2CCCCC2)C1C1CC2c3ccccc3C1c1ccccc12 (stereo unspecified)
5. c1ccc(C2CC(c3cccc(Nc4ccncc4)c3)=NN2c2ccccc2)cc1 (stereo unspecified)

Result:
1. > 100 µM
2. 10.5 µM
3. > 100 µM
4. > 100 µM
5. 28.7 µM

# batch: return TGI for each of the 2 molecules below
1. CN(C)c1nc2oc(-c3ccccc3)c(-c3ccccc3)c2c2nncn12
2. COc1ccc(N(CN2C(=O)CCC2C(=O)O)C(C)=O)cc1 (stereo unspecified)

Result:
1: > 100 µM; 2: > 100 µM

---

Test system: SF-539 CNS
PROTOCOL_DESCRIPTION: NCI tumour cell line growth inhibition, 48 h
MEASURED_PARAMETER: TGI

# count of solved cases: 5
Query: State, in one line, measured TGI of `CC(=O)Nc1ccc(N=C2C(c3ccccc3)=C(SC3=C(c4ccccc4)C(=Nc4ccc(NC(C)=O)cc4)c4ccccc43)c3ccccc32)cc1`
Result: 28.5 µM

Query: State, in one line, measured TGI of CCC1C(=O)OCc2c1cc1n(c2=O)Cc2cc3ccccc3nc2-1 (stereo not drawn)
Result: 5.67 µM

Query: State, in one line, measured TGI of `CCN1C=C/C(=C\C=C/c2cc[n+](CC)c3ccccc23)c2ccccc21`
Result: 9.08 µM

Query: State, in one line, measured TGI of CC1=NOC2(C1)C(=O)Nc1ccccc12 (stereo not drawn)
Result: > 100 µM

Query: State, in one line, measured TGI of `COc1ccc(/C=C2\C(=O)N(C)C(=O)c3cc(OC)c(OC)cc32)cc1OC`
Result: 76.2 µM

# batch: return TGI for each of the 7 compounds below
1. Cc1ccccc1C1OC(=O)c2ccccc21 (stereo not drawn)
2. COc1ccccc1/C=C(\C#N)C(=O)c1ccccc1
3. O=[N+]([O-])c1ccc2[nH]nc(OCc3ccccn3)c2c1
4. CCOC(O)(NC(=O)C(C(F)(F)F)C(F)(F)F)C(F)(F)F (stereo not drawn)
5. O=c1[nH]cnc2c1sc1nc3ccccc3n12
6. N#CC(C(=O)/C(=N/NC(=O)c1ccccc1O)C(C#N)c1ccccc1)c1ccccc1 (stereo not drawn)
7. CCOc1ccc(Nc2nc3c(s2)C(=O)c2ccccc2C3=O)cc1

Result:
> 100 µM
> 100 µM
> 100 µM
> 100 µM
> 100 µM
> 100 µM
35.7 µM

# batch: return TGI for each of the 3 compounds below
1. COc1ccc2c(c1)CCN=C2Cc1cc(OC)c(OC)cc1CCCl
2. O=c1cc(-c2ccc(O)cc2)n(C2CC2)c2ccccc12
3. CCOC(=O)c1c(-c2ccccc2)oc(-c2ccccc2)c1C(=O)OCC

Result:
1. 65.7 µM
2. 18.9 µM
3. > 100 µM

# batch: return TGI for each of the 3 compounds below
1. O=C(CCC(=O)Nc1cccc(Cl)c1)CC(=O)c1ccc(F)cc1
2. CCCCOc1ccc(NC(=O)n2nc(N)c3ccccc32)cc1
3. CCOC(=O)[C@]12C(=C(c3ccccc3)O[C@H]3C=CCC[C@H]31)C(=O)C(=O)N2c1ccccc1

Result:
> 100 µM
35.7 µM
> 100 µM

---

Tested on: SK-MEL-28 melanoma
PROTOCOL_DESCRIPTION: NCI tumour cell line growth inhibition, 48 h; in the data active = GI50 below about 0.43 µM; inactive = the rest
Bench note: report the call from class 1 (active), class 0 (inactive)

Worked examples, 3 compounds total:
Query: Please indicate how the test categorized `Cn1ccnc1C(=O)/C=C/c1ccc(C(=O)Nc2ccc(S(F)(F)(F)(F)F)cc2)cc1` .
Result: class 0

Query: Please indicate how the test categorized `N=C(N)c1ccc(OCCOCCOc2ccc(C(=N)N)cc2)cc1` .
Result: class 0

Query: Please indicate how the test categorized `O=c1cc(-c2ccccc2)oc2cc(O)c(O)c(O)c12` .
Result: class 0

---
Query: Please indicate how the test categorized `CC[O-].CC[O-].O=C([CH-]C(=O)c1cccnc1)c1ccccc1.O=C([CH-]C(=O)c1cccnc1)c1ccccc1.[Ti+4]` .
Result: class 0

---

System: UACC-62 melanoma
PROTOCOL_DESCRIPTION: NCI tumour cell line growth inhibition, 48 h
MEASURED_PARAMETER: TGI

# count of solved cases: 6
Query: State, in one line, measured TGI of `O=c1ccc(N=Nc2ccc([N+](=O)[O-])cc2)ccc1O`
Result: 43.9 µM

Query: State, in one line, measured TGI of `COc1cc2c(cc1O)-c1c(cnn1-c1ccc([N+](=O)[O-])cc1)CCC2`
Result: 8.42 µM

Query: State, in one line, measured TGI of CC1=NNC(=O)C1C1CC(c2c[nH]c3ccccc23)=NNC1=S (configuration not stated)
Result: > 100 µM

Query: State, in one line, measured TGI of `CCN1C=C/C(=C\C=C/c2cc[n+](CC)c3ccccc23)c2ccccc21`
Result: 23.8 µM

Query: State, in one line, measured TGI of `Cc1nc(-c2ccccc2)c(Cc2ccccc2O)c(=O)[nH]1`
Result: > 100 µM

Query: State, in one line, measured TGI of `O=C1Cc2c([nH]c3c(Cl)cccc23)-c2ccccc2N1`
Result: > 100 µM

# batch: return TGI for each of the 8 compounds below
1. NC(=O)C#CC#CC#CCO
2. Cc1cc(Cl)cc2c(N=Nc3ccccc3[N+](=O)[O-])c(O)[nH]c12
3. CN(C)c1nc2oc(-c3ccccc3)c(-c3ccccc3)c2c2nncn12
4. O=C(O)C1=CCCc2ccc3ccccc3c21
5. Cc1noc2cccc(OCc3ccccc3)c12
6. O=C1CS(=O)(=O)C(c2cccc(Oc3ccccc3)c2)N1c1cccc(Cl)c1 (configuration not stated)
7. CCCc1cc(O)c2c3c(c(=O)oc2c1)CN(C)CC3
8. Cn1ccnc1C(=O)/C=C/c1ccc(C(=O)Nc2ccc(S(F)(F)(F)(F)F)cc2)cc1

Result:
1: 4.32 µM; 2: > 100 µM; 3: > 100 µM; 4: > 100 µM; 5: > 100 µM; 6: 29.4 µM; 7: > 100 µM; 8: > 14.3 µM

# batch: return TGI for each of the 2 compounds below
1. CCC[CH2][Sn]([CH2]CCC)([O]C(=O)c1cc(F)ccc1F)[O][Sn]([CH2]CCC)([CH2]CCC)[O]C(=O)c1cc(F)ccc1F
2. CS(=O)(=O)OCC1OC(n2ccc(NC(=O)c3ccccc3)nc2=O)CC1OS(C)(=O)=O (configuration not stated)

Result:
0.665 µM
> 100 µM
